Source listed as ChEMBL document CHEMBL4145586.

Tested on: A549
Experiment: Cytotoxicity against human A549 cells assessed as effect on cell viability at 50 uM after 48 hrs by MTT assay
Format: cell-based
Settings: a549, 48 h
Recorded Metric: Activity

Structure As Smiles	Recorded Metric	Meas Value
COc1cccc(-c2nc(C(=O)NCCc3ccccc3O)c(C)o2)c1OC	Activity	Non-Toxic
COc1cccc(-c2nc(C(=O)NC[C@@H](O)c3ccccc3)c(C)o2)c1OC	Activity	Non-Toxic
COc1cccc(-c2nc(C(=O)NCCc3ccccc3)c(C)o2)c1O	Activity	Non-Toxic
COc1cccc(-c2nc(C(=O)NCCc3ccccc3O)c(C)o2)c1O	Activity	Non-Toxic

###

Tested on: MCF7
Experiment: Cytotoxicity against human MCF7 cells assessed as effect on cell viability at 50 uM after 48 hrs by MTT assay
Type: cell-based
Conditions: mcf7, 48 h
Recorded Metric: Activity

Structure As Smiles	Experimental System	Meas Value
COc1cccc(-c2nc(C(=O)NC[C@@H](O)c3ccccc3)c(C)o2)c1OC	MCF7	Non-Toxic
COc1cccc(-c2nc(C(=O)NCCc3ccccc3O)c(C)o2)c1O	MCF7	Non-Toxic
COc1cccc(-c2nc(C(=O)NCCc3ccccc3)c(C)o2)c1O	MCF7	Non-Toxic
COc1cccc(-c2nc(C(=O)NCCc3ccccc3O)c(C)o2)c1OC	MCF7	Non-Toxic
